Please respond with reported MIC for every item in the list.
Tested on: E. coli 100/B22
Experiment: In vitro antibacterial activity, MIC (modified Autotiter method)
Format: cell-based, Escherichia coli
Conditions: Escherichia coli, 100/B22, 20 h, read-out: MIC E. coli 100/B22, 18-20 hours at 37° C.
Procedure: The antibacterial and antifungal activity of representative examples of the compounds of Formula I was determined using a modification of the Autotiter method described by Goss, et al. Applied Microbiology 16 (9) 1,414-1,416 (1968) in which a 1,000 mcg./ml. solution of the test compound is prepared. To the first cup of the Autotray is added 0.1 ml. of the test solution. […]
Kindly provide the numeric value in µg/mL only, without the unit symbol.

Q) Which MIC reading was recorded for the molecule CCCCCCCCNc1cc[n+](CCCCCCCCCC[n+]2ccc(NCCCCCCCC)cc2)cc1 [10A,B] ?
A) 1

Q) Request: CCCCC(CC)CNc1cc[n+](CCCCCCCCCCCC[n+]2ccc(NCC(CC)CCCC)cc2)cc1 (stereo not shown) [Example 41C]
A) 1

Q) Entry to check: CCCCCCCCNc1cc[n+](CCCCCCCCC[n+]2ccc(NCCCCCCCC)cc2)cc1 [Example 44A]
A) 1

Q) Please give the result for CCCCCCCNc1cc[n+](CCCCCCCCCCCCCC[n+]2ccc(NCCCCCCC)cc2)cc1 [Example 2] too.
A) 1

====

system: S. pyogen. C203; assay: In vitro antibacterial activity, MIC (modified Autotiter method); assay type: cell-based, Streptococcus pyogenes; conditions: Streptococcus pyogenes, 20 h, 18-20 hours at 37° C.; read-out: MIC S. pyogen. C203
endpointLabel: MIC (µg/mL)
Kindly answer with a numeric value in µg/mL, unit omitted.

Q) # MIC lookup, item `c1c[n+](CCCCCCC[n+]2ccc(NC3CCCCC3)cc2)ccc1NC1CCCCC1`
A) 7.8

Q) How about `Fc1ccc(Nc2cc[n+](CCCCCCCC[n+]3ccc(Nc4ccc(F)cc4)cc3)cc2)cc1` ?
A) 7.8

Q) Field entry: Nc1cc[n+](CCCCCCCCC[n+]2ccc(N)cc2)cc1 [VII, reference compound]
A) 7.8

====

system: E. coli 100/B22; assay: In vitro antibacterial activity, MIC (modified Autotiter method); format: cell-based, Escherichia coli; conditions: Escherichia coli, 100/B22, 20 h, 18-20 hours at 37° C.; read-out: MIC E. coli 100/B22
Please respond with reported MIC for every item in the list.

Q) I'd like to know its MIC. The compound in question is `c1c[n+](CCCCCC[n+]2ccc(NC3CCCCC3)cc2)ccc1NC1CCCCC1`
A) > 125 µg/mL

Q) Entry to check: `CCCCCCCCCCCCNc1cc[n+](CCCCCCCCCCCC[n+]2ccc(NCCCCCCCCCCCC)cc2)cc1`
A) > 62.5 µg/mL

Q) Proceed to `CCCCCCCCCCCCNc1cc[n+](CCCCCCCCCC[n+]2ccc(NCCCCCCCCCCCC)cc2)cc1`
A) > 62.5 µg/mL

====

system: A. niger 16404; assay: In vitro antifungal activity, MIC (modified Autotiter method); assay type: cell-based, Aspergillus niger; conditions: Aspergillus niger, 16404, 20 h, 18-20 hours at 37° C.; read-out: MIC A. niger 16404
Please provide measured MIC for the entries that follow.
Give the number; µg/mL is assumed, so skip it.

Q) # query: MIC of entry CCCCCCCCCNc1cc[n+](CCCCCCCCCC[n+]2ccc(NCCCCCCCCC)cc2)cc1 [Example 51]
A) 7.8

Q) Also CCCCCCNc1cc[n+](CCCCCCCCCCCCCC[n+]2ccc(NCCCCCC)cc2)cc1 [Example 5C] ?
A) 3

Q) Now consider CCCCC(CC)CNc1cc[n+](CCCCCC[n+]2ccc(NCC(CC)CCCC)cc2)cc1 (centres unmarked) [Example 54] .
A) 15.6

Q) Next: CCCCC(CC)CNc1cc[n+](CCCCCCCCCCCC[n+]2ccc(NCC(CC)CCCC)cc2)cc1 (centres unmarked) [Example 41C]
A) 3.9

Q) Likewise for CCCCCCNc1cc[n+](CCCCCCCCC[n+]2ccc(NCCCCCC)cc2)cc1 [Example 19] ?
A) 15.6

Q) Would you kindly repeat that for Clc1ccc(Nc2cc[n+](CCCCCCCCC[n+]3ccc(Nc4ccc(Cl)cc4)cc3)cc2)cc1 [Example 82] ?
A) 15.6

Q) And for c1c[n+](CCCCCC[n+]2ccc(NC3CCCCC3)cc2)ccc1NC1CCCCC1 [Example 36] ?
A) 125

====

test system: S. Aureus Smith; experiment: In vitro antibacterial activity, MIC (modified Autotiter method); format: cell-based, Staphylococcus aureus; settings: Staphylococcus aureus, 20 h, 18-20 hours at 37° C.; read-out: MIC S. Aureus Smith
Mark Y only when MIC stays strictly below 0.4 µg/mL. Values equal to the cut-off are N.

Q) Is MIC of CCCCC(CC)CNc1cc[n+](CCCCCCCCC[n+]2ccc(NCC(CC)CCCC)cc2)cc1 (stereo not drawn) strictly below 0.4 µg/mL?
A) Y

Q) Same question for `CCCCCCCCCCCCNc1cc[n+](CCCCCCCCC[n+]2ccc(NCCCCCCCCCCCC)cc2)cc1` please.
A) N

Q) Also, `CCCCCCCCCCNc1cc[n+](CCCCCCCCCC[n+]2ccc(NCCCCCCCCCC)cc2)cc1` please.
A) N

Q) Next compound up: `CCCCCCNc1cc[n+](CCCCC[n+]2ccc(NCCCCCC)cc2)cc1`
A) N

Q) Same question for `CCCCCCCCCCCCNc1cc[n+](CCCCCCCC[n+]2ccc(NCCCCCCCCCCCC)cc2)cc1` please.
A) N

Q) One more compound: CCCCCCCCCCNc1cc[n+](CCCCCC[n+]2ccc(NCCCCCCCCCC)cc2)cc1 [Example 64B]
A) N

Q) Here is the next compound: CCCCC(CC)CNc1cc[n+](CCCCCCCCCC[n+]2ccc(NCC(CC)CCCC)cc2)cc1 (stereo not drawn)
A) Y

====

system: S. Aureus Smith; assay: In vitro antibacterial activity, MIC (modified Autotiter method); format: cell-based, Staphylococcus aureus; conditions: Staphylococcus aureus, 20 h, 18-20 hours at 37° C.; read-out: MIC S. Aureus Smith
Please go through the items and note down their MIC.
Entry rule: numbers only, all in µg/mL.

Q) Returns the measured MIC for the input compound. Input: `CCCCCCCCNc1cc[n+](CCCCCCCCCCCCCC[n+]2ccc(NCCCCCCCC)cc2)cc1`
A) 1

Q) Try this compound next: `Clc1ccc(Nc2cc[n+](CCCCCCC[n+]3ccc(Nc4ccc(Cl)cc4)cc3)cc2)cc1`
A) 0.98

Q) How about this compound: `CCCCCCCCCCNc1cc[n+](CCCCCCC[n+]2ccc(NCCCCCCCCCC)cc2)cc1`
A) 1

Q) Another compound: `CCCCCCCNc1cc[n+](CCCC[n+]2ccc(NCCCCCCC)cc2)cc1`
A) 0.98

Q) Proceed to CCCCC(CC)CNc1cc[n+](CCCC[n+]2ccc(NCC(CC)CCCC)cc2)cc1 (stereo not shown)
A) 0.98

Q) Try this compound too: `CCCCCCCCCCNc1cc[n+](CCCCCCCCC[n+]2ccc(NCCCCCCCCCC)cc2)cc1`
A) 1

Q) What would you report for `c1c[n+](CCCCCCCCC[n+]2ccc(NC3CCCCC3)cc2)ccc1NC1CCCCC1` ?
A) 0.98

====

Provide the recorded MIC for the entries that follow.
system: E. coli AB1932-1; test: In vitro antibacterial activity, MIC (modified Autotiter method); format: cell-based, Escherichia coli; settings: Escherichia coli, AB19321, 20 h, 18-20 hours at 37° C.; read-out: MIC E. coli AB1932-1
Expressed in µg/mL, but write only the number.

Q) Query MIC on E. coli AB1932-1 for `CCCCCCCCCCNc1cc[n+](CCCCCCC[n+]2ccc(NCCCCCCCCCC)cc2)cc1`
A) 3.9

Q) // repeat for `CCCCCCCNc1cc[n+](CCCCCCC[n+]2ccc(NCCCCCCC)cc2)cc1` and report
A) 1.95

Q) Also `CCCCCCCCNc1cc[n+](CCCCCCCCCCCC[n+]2ccc(NCCCCCCCC)cc2)cc1` , if possible.
A) 1.95

Q) # repeat for `Clc1ccc(Nc2cc[n+](CCCCCCCCC[n+]3ccc(Nc4ccc(Cl)cc4)cc3)cc2)cc1`
A) 0.98

Q) Also, Clc1ccc(Nc2cc[n+](CCCCCCCCCC[n+]3ccc(Nc4ccc(Cl)cc4)cc3)cc2)cc1 [Example 79B] please.
A) 0.8

Q) Then `CCCCCCCCNc1cc[n+](CCCCCCCC[n+]2ccc(NCCCCCCCC)cc2)cc1` ?
A) 1

Q) Another molecule to look at: `CCCCCCNc1cc[n+](CCCCCCC[n+]2ccc(NCCCCCC)cc2)cc1`
A) 7.8

Q) Param item: CCCCCCCCCCNc1cc[n+](CCCCCC[n+]2ccc(NCCCCCCCCCC)cc2)cc1 [Example 64B]
A) 1.95

Q) Same read-out for `CCCCCCNc1cc[n+](CCCCC[n+]2ccc(NCCCCCC)cc2)cc1` ?
A) 31.3

Q) Next record, please: `CCCCCCCCNc1cc[n+](CCCCCCCCCCCCCC[n+]2ccc(NCCCCCCCC)cc2)cc1`
A) 3.9

Q) Now consider `c1c[n+](CCCCCCC[n+]2ccc(NC3CCCCC3)cc2)ccc1NC1CCCCC1` .
A) 125

Q) Repeat with `CCCCCCCNc1cc[n+](CCCCCCCC[n+]2ccc(NCCCCCCC)cc2)cc1`
A) 0.98

Q) `CCCCCCCNc1cc[n+](CCCC[n+]2ccc(NCCCCCCC)cc2)cc1` ?
A) 7.8

Q) Now consider Nc1cc[n+](CCCCCCCC[n+]2ccc(N)cc2)cc1 [I, reference compound] and answer again.
A) 125

Q) Would you kindly repeat that for `c1c[n+](CCCCCCCC[n+]2ccc(NC3CCCCC3)cc2)ccc1NC1CCCCC1` ?
A) 31.3

Q) Item: `Fc1ccc(Nc2cc[n+](CCCCCCCC[n+]3ccc(Nc4ccc(F)cc4)cc3)cc2)cc1`
A) 7.8

Q) Another: `CCCCCCCCNc1cc[n+](CCCCCC[n+]2ccc(NCCCCCCCC)cc2)cc1`
A) 1

Q) Same question for `CCCCCCCCCNc1cc[n+](CCCCCCC[n+]2ccc(NCCCCCCCCC)cc2)cc1` please.
A) 1.95

Q) Could you do the same for `CCCCCCNc1cc[n+](CCCC[n+]2ccc(NCCCCCC)cc2)cc1` , please?
A) 62.5

Q) Another molecule: `CCCCCCCNc1cc[n+](CCCCCC[n+]2ccc(NCCCCCCC)cc2)cc1`
A) 1.6

This collection of values is drawn from patent US4206215A.
